These data points were gathered from PubChem BioAssay (NCI).

Tested on: SR leukemia
ASSAY REMARKS: NCI tumour cell line growth inhibition, 48 h

| SMILES NOTATION | TGI |
| --- | --- |
| COc1ccc(/C=C2\C=Cc3ccccc32)cc1OC | > 100 µM |
| C=C1C(=O)O[C@@H]2C[C@@H]1CC[C@]1(C)O[C@H]1CC[C@@]1(C)O[C@@H]1CC[C@@]2(C)O | 31.1 µM |
| CCN(CC)CCCN(c1cc(OC)cc2nccnc12)S(=O)(=O)c1ccc(C)cc1 | > 100 µM |
| CC(C)C[C@H](NC(=O)[C@H](Cc1ccccc1)n1ccc(N2CCCCC2)cc1=O)B(O)O | 11.6 µM |
| COc1ccc2[nH]c(CCNC(=O)c3cc([N+](=O)[O-])cc([N+](=O)[O-])c3)cc2c1 | > 100 µM |
| C[Si](C)(C)C#CCO[Si](C)(C)C | > 61.5 µM |
| c1ccc(N=C2c3ccccc3CN2c2ccccc2)cc1 | > 100 µM |
| COc1cccc(N2C(=O)c3c(c4[nH]c5ccccc5c4c4ccc(C(C)(C)C)cc34)C2=O)c1 | > 100 µM |
| CCNC(=O)C[C@@H]1N=C(c2ccc(Cl)cc2)c2cc(OC)ccc2-n2c(C)nnc21 | > 100 µM |
| Nc1c(C(=O)Nc2ccccc2)sc2nc3c(cc12)CCCCCC3 | 30.9 µM |
